// reported Relative inhibitory effect (%) per item
measured on: T1, factor XIIIa (Homo sapiens, UniProt P00488)
T1 sequence (P00488 39-732 limits assumed): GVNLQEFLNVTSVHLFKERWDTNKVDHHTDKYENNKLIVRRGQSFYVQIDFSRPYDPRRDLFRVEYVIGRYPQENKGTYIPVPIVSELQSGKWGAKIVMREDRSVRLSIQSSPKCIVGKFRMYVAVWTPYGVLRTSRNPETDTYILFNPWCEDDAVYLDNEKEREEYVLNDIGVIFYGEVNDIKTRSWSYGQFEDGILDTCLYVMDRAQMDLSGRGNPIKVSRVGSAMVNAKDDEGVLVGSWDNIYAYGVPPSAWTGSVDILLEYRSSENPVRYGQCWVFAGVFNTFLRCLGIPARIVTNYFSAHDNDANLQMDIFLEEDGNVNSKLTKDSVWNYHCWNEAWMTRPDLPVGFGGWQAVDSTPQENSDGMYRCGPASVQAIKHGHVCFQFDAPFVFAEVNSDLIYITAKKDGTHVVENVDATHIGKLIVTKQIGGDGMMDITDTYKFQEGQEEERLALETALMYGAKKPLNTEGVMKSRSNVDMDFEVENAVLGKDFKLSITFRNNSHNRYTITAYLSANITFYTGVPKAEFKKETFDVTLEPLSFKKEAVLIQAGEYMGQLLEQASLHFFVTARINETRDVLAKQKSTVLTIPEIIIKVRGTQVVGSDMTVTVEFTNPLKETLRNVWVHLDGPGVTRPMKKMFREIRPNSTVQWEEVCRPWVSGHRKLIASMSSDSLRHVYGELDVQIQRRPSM
test protocol: biochemical
Format: biochemical
cond: Table 2; final variant concentration 5.45 μM; recombinant tridegin polypeptide normalized to 100%
Protocol: The assay is based on factor XIII being activated to form factor XIIIa by thrombin which is present in the reagents. Factor XIIIa links a specific peptide substrate to glycine ethyl ester with ammonium ions being released. The latter are determined in an enzyme reaction which proceeds in parallel. […] For the evaluation, the differences in the values measured after 16 and 20 min were compared. The relative inhibitory effect (%) was determined at a final variant concentration of 5.45 μM. […]
Just the number please, in %, no unit attached.

• D50A, P55L: spontaneously arising double mutant of tridegin SEQ ID No. 1, expressed in Escherichia coli (protein) MKLLPCKEWHQGIPNPRCWCGADLECAQDQYCAFIPQCRPRSELIKPMDAIYQRLVEFPNLPLKPREE = 84

Read the next record carefully.
Quick check: Relative inhibitory effect (%) of F58A: modified tridegin, XnY mutation of SEQ ID No. 1, expressed in Escherichia coli (protein) MKLLPCKEWHQGIPNPRCWCGADLECAQDQYCAFIPQCRPRSELIKPMDDIYQRPVEAPNLPLKPREE ?
60
